Data provenance: paper PMC9145865

The entries below come with measured pIC50 values attached.
- System: HaCaT cells
- Measurement Description: MTT cytotoxicity assay
- Assay type: cell-based, human
- Condition Description: Homo sapiens, HaCaT cell viability, 12 h
pIC50: −log10 of the molar value.

Compound	pIC50
CCCCCc1cc(O)c(C/C=C(\C)CCC=C(C)C)c(O)c1C(=O)O [CBGA, cannabigerolic acid]	4.61
CCCCCc1cc(O)c2c(c1)OC(C)(CCC=C(C)C)C=C2 (stereo not shown) [CBC, cannabichromene]	4.81
CCCCCc1cc(O)c(C/C=C(\C)CCC=C(C)C)c(O)c1 [CBG, cannabigerol]	4.89
CCCc1cc(O)c2c(c1)OC(C)(C)[C@@H]1CCC(C)=C[C@@H]21 [THCV, Δ^9-tetrahydrocannabivarin]	4.65
